Here the recorded TGI is given for each entry.
Test system: SNB-75 CNS
Experiment: NCI tumour cell line growth inhibition, 48 h

[
  {
    "molecule": "c1ccc2sc(C3(N4CCCCC4)CCCCCC3)cc2c1",
    "TGI": "42 µM"
  },
  {
    "molecule": "CC(C)(C)[Si](C)(C)O/N=C\\c1ccc(O[Si](C)(C)C(C)(C)C)cc1",
    "TGI": "> 100 µM"
  },
  {
    "molecule": "CCOc1ccc(N=Nc2ccc3oc(=O)c(C(=O)Nc4ccc(OC)cc4)cc3c2)cc1",
    "TGI": "93.7 µM"
  },
  {
    "molecule": "O=c1c2ccccc2nc(-c2ccccc2)n1NC(=S)Nc1ccc(Cl)cc1[N+](=O)[O-]",
    "TGI": "> 100 µM"
  },
  {
    "molecule": "CN1C2C=C(c3ccccc3)CC1CC2 (stereo unspecified)",
    "TGI": "> 100 µM"
  }
]

Then there is this molecule:
### Prompt Indicate the recorded TGI value for this molecule: CCOC(=O)c1c(C)n2c(=O)cc(C)c3c(OC(C)=O)c(OC(C)=O)cc1c32
### Response > 28.3 µM
